Hey, just so you know, these numbers are from PubChem BioAssay.

system: XIP peptide (Xip251-270) binding; assay: small-molecule binders of XIP peptide, primary screen, biochemical, small-molecule microarray, fluorescence 635/667 nm, 0.1 µg/mL protein (AID 1182); conditions: fluorescent protein binding, 635 nm, higher = more signal, called active from +8 up or from −8 down
Classify as follows. Reported composite z-score greater than or equal to 0.2: y. Reported composite z-score below: n.

Please check the record `NCCCCCCNC(=O)[C@H]1C[C@H]2C(=O)N[C@@H](Cc3ccccc3)C(=O)N2[C@H]1c1ccc(O)cc1` and state if its composite z-score is at or above 0.2.
n

API: above_or_equal(metric=composite z-score, cutoff=0.2) for item `CC(C)(C)OC(=O)CC[C@]1(C(=O)NCCN2CCOCC2)N=C(c2ccc(OCCCO)cc2)O[C@H]1c1ccccc1N=[N+]=[N-]`
y

Could you verify whether the entry `C=CCN1C(=O)[C@@]2(O[C@@H](CCO)[C@H]([Si](C)(C)c3ccc(OC)cc3)[C@H]2C)c2cc(N3C(=O)c4ccccc4Oc4ccccc43)ccc21` shows composite z-score of no less than 0.2?
y

Please check the record CC=CC(O)C1C=CC2C(=O)N(C)C(=O)C2N1Nc1ccc([N+](=O)[O-])cc1[N+](=O)[O-] (stereo not drawn) and state if its composite z-score is at or above 0.2.
y

// inclusive: composite z-score at least 0.2? input: `CC(C)CN1C(=O)[C@@]2(c3ccc([N+](=O)[O-])cc3)CC(=O)N(CC34CC5CC(CC(C5)C3)C4)[C@@H]2c2ccc(CO)cc21`
n

Is composite z-score at least 0.2? Consider `CCCN1C(=O)[C@]2(Cc3ccccc3)N=C(c3ccc(OCCCO)cc3)O[C@@H]2c2ccccc21`
n

Reported composite z-score at or above 0.2? `CN(C)CCCNC(=O)[C@@]1(c2ccc([N+](=O)[O-])cc2)CC(=O)N(CC23CC4CC(CC(C4)C2)C3)[C@@H]1c1ccc(CO)cc1`
y

Does composite z-score meet or surpass 0.2 for `[N-]=[N+]=NCc1ccccc1C[C@@]1(C(=O)NCCN2CCOCC2)N=C(c2ccc(OCCCO)cc2)O[C@@H]1c1ccccc1N=[N+]=[N-]` ?
y

Does the molecule `CC(C)CN1C(=O)[C@@]2(Cc3ccccc31)c1ccccc1C(=O)N(Cc1ccccc1C(F)(F)F)[C@H]2c1ccc(CO)cc1` have recorded composite z-score that is 0.2 or more?
n

Is it the case that COc1ccc(C(O)C2C=CC3C(=O)N(Cc4ccccc4)C(=O)C3N2n2cnnc2)c2ccccc12 (stereo not drawn) has composite z-score reaching or exceeding 0.2?
y

Test whether the molecule `CCOC(=O)[C@@H]1[C@@H]2C(=O)N(CC)C(=O)[C@@H]2C[C@@H]1Sc1ccccc1` records composite z-score of 0.2 or higher.
n

Determine whether this molecule has composite z-score no lower than 0.2: `[N-]=[N+]=Nc1ccccc1C[C@]1(C(=O)NCc2ccccc2)N=C(c2ccc(OCCCO)cc2)O[C@H]1c1ccccc1`
y

Quick check, composite z-score >= 0.2? [N-]=[N+]=NCc1ccccc1C[C@]1(C(=O)NCC(O)CO)N=C(c2ccc(OCCCO)cc2)O[C@H]1c1ccccc1CN=[N+]=[N-] (stereo partly drawn)
y

Dear colleague, could you confirm whether `COCCCNC(=O)[C@@]1(Sc2ccc(C)cc2)CC(=O)N(Cc2cc(C(F)(F)F)cc(C(F)(F)F)c2)[C@@H]1c1ccc(CO)cc1` has composite z-score at or above 0.2?
y

composite z-score >= 0.2 for `O=C1C[C@]2(c3ccc([N+](=O)[O-])cc3)C(=O)N(Cc3ccccc3)c3cc(CO)ccc3[C@H]2N1CC12CC3CC(CC(C3)C1)C2` ?
n

Test whether the molecule `O=C1O[C@@H](c2ccccc2)[C@@H](c2ccccc2)N2[C@@H](c3ccccc3OCCO)[C@]3(C(=O)Nc4ccccc43)[C@@H](C(=O)NC[C@H](O)c3ccccc3)[C@H]12` records composite z-score of 0.2 or higher.
y

Could you verify whether the entry `COc1c(C)cc(-c2cc3c(c(Cc4ccccc4)n2)[Si](C(C)C)(C(C)C)OC3)cc1C` shows composite z-score of no less than 0.2?
n

In plain terms: is recorded composite z-score at least 0.2 for CC[C@@H]1[C@H]2C3C(=O)N(CC)C(=O)C3CC(=O)[C@H]2[C@H](c2ccc(C)cc2)N1S(=O)(=O)c1ccc(C)cc1 (stereo partly drawn) ?
n

Dear colleague, could you confirm whether `COC(=O)c1c(CC[C@@H](CO)NC(=O)N[C@H](Cn2cc(-c3ccccc3C)nn2)C(C)C)oc(C(C)=O)c1C(=O)OC` has composite z-score at or above 0.2?
n

Has `Cc1ccc(F)cc1S(=O)(=O)N[C@@H]1CCN(Cc2ccc(OC(C)C)cc2)C1` a recorded composite z-score greater than or equal to 0.2?
n

Quick check, composite z-score >= 0.2? `COc1cc2c(cc1OC)CN(C(=O)[C@H]1[C@@H]3C(=O)O[C@@H](c4ccccc4)[C@@H](c4ccccc4)N3[C@@H](c3ccc(OCCO)cc3)[C@]13C(=O)Nc1ccc(C#CCCO)cc13)CC2`
y

Reported composite z-score reaches at least 0.2 for `C=C[C@H](COC(C)=O)NS(=O)(=O)c1ccc(Br)cc1` ?
n

Given CCN(CC)c1ccc(N2CC=CC34O[C@@H]5/C=C\CCC(C)OC(=O)C5[C@H]3C(=O)N(CCO)[C@@H]4C2=O)cc1 (stereo partly drawn) , state whether its composite z-score is at least 0.2.
y

Given the entry `CO[C@H]1O[C@H](CO)[C@@H](OC(=O)Nc2ccccc2-c2ccccc2)[C@H](OC(=O)Nc2ccc3c(c2)OCO3)[C@@H]1OC(=O)Nc1ccc2c(c1)OCO2` , answer whether its composite z-score meets or surpasses 0.2.
y

Can `COCCOC(=O)N1C(=O)[C@@]2(c3cc(C#Cc4ccc(OC)cc4)ccc31)[C@H](C(=O)NC[C@H](O)c1ccccc1)[C@H]1C(=O)O[C@H](c3ccccc3)[C@H](c3ccccc3)N1[C@@H]2c1ccc(O)cc1` be said to have composite z-score at or above 0.2?
y

Evaluate C[C@H]1C2=C3C(CC[C@H]4C(OCc5ccc(F)cc5C(F)(F)F)OC[C@](C)([C@@H]34)N(C(=O)OC(C)(C)C)C2)C2COC(=O)OCC21 (stereo partly drawn) : composite z-score at minimum 0.2?
n

Item `CC(C)CNC(=O)[C@@H]1c2ccccc2C(=O)N(Cc2cc(F)cc(C(F)(F)F)c2)[C@H]1c1ccc(CO)cc1` with composite z-score of 0.2 or above?
y

Check this molecule for composite z-score at or above 0.2: CC=CC(O)C1C=CC2C(=O)N(c3ccccc3)C(=O)C2N1Nc1ccccc1 (stereo not drawn)
y
